Ref: patent US20260078099A1

- Test Details: LNP zeta potential
- Assay type: physicochemical
- Assay Context: mRNA LNP
Attribute Measured: Zeta potential (mV)

INSERT INTO assay_data (compound, result) VALUES
  ('CCCCCC/C=C\CCCCCCCC(C(=O)NCCCCCCCC/C=C\CCCCCCCC)N(CCCN(C)C)C(=O)CCCCCCC/C=C\CCCCCCCC (stereo not drawn)', '−0.77 mV'),
  ('CCCCCCCC(C(=O)NCCCCCCCCCC(=O)OC(CCCCCC)CCCCCC)N(CCCN(CCO)CCO)C(=O)CCCCCCCCCC(=O)OC(CCCCCC)CCCCCC (stereo not drawn)', '−6.41 mV'),
  ('CCCCCCCCC(C(=O)NCCCCCCCCCC(=O)OCCCCCC)N(CCCN1CCCC1)C(=O)CCCCCCCCCC(=O)OCCCCCC (stereo not drawn)', '−9.54 mV'),
  ('CCCCCCCCNC(=O)C(CCCCCCCC)N(CCC1CCCN1C)C(=O)CCCCCCC(=O)OC(CCCCCCCC)CCCCCCCC (stereo not drawn)', '2.08 mV'),
  ('CCCCCCCC(C(=O)NCCCCCCCCCC(=O)OC(CCCCCC)CCCCCC)N(COC(=O)CCN(C)C)C(=O)CCCCCCCCCC(=O)OC(CCCCCC)CCCCCC (stereo not drawn)', '12.50 mV'),
  ('CCCCCCCCCCCNC(=O)C(CCCCCCCC)N(CCN(C)CCN(C(=O)CCCCCCCCCC(=O)OC(CCCCCC)CCCCCC)C(CCCCCCCC)C(=O)NCCCCCCCCCC)C(=O)CCCCCCCCCC(=O)OC(CCCCCC)CCCCCC (stereo not drawn)', '−5.91 mV'),
  ('CCCCCCCCNC(=O)C(CCCCCCCC)N(CCN(C)CCO)C(=O)CCCCCCC(=O)OC(CCCCCCCC)CCCCCCCC (stereo not drawn)', '4.83 mV'),
  ('CCCCCCC(CCCCCC)OC(=O)CCCCCCCCCNC(=O)C(CCCCCCCCCC(=O)OC(CCCCCC)CCCCCC)N(CCCN(C)CCO)C(=O)CCCN(C)CCO (stereo not drawn)', '−19.40 mV'),
  ('CCCCCCCC(C(=O)NCCCCCCCCCC(=O)OC(CCCCCC)CCCCCC)N(CCN1CCN(CCO)CC1)C(=O)CCCCCCCCCC(=O)OC(CCCCCC)CCCCCC (stereo not drawn)', '5.42 mV'),
  ('CCCCCCCCNC(=O)C(CCCCCCCC)N(CCCN(C)C)C(=O)CCCCCCC(=O)OC(CCCCCCCC)CCCCCCCC (stereo not drawn)', '2.30 mV'),
  ('CCCCCCCC(C(=O)NCCCCCCCCCC(=O)OC(CCCCCC)CCCCCC)N(CCCN1CCN(CCO)CC1)C(=O)CCCCCCCCCC(=O)OC(CCCCCC)CCCCCC (stereo not drawn)', '14.20 mV'),
  ('CCCCCCCC(C(=O)NCCCCCCCCCC(=O)OC(CCCCCC)CCCCCC)N(CCCN(C)C)C(=O)CCCCCCCCCC(=O)OC(CCCCCC)CCCCCC (stereo not drawn)', '−9.55 mV');

###

- Test Details: LNP zeta potential
- Format: physicochemical
- Assay Context: mRNA LNP
Classify by measured Zeta potential (mV): T if it is equal to or exceeds -2 mV, F if it is smaller.

INSERT INTO measurements (compound, answer_label) VALUES
  ('CCCCCCCCNC(=O)C(CCCCCCCC)N(CCN(CC)CCO)C(=O)CCCCCCC(=O)OC(CCCCCCCC)CCCCCCCC (stereo not drawn)', 'T'),
  ('CCCCCCCC(C(=O)NCCCCCCCCCC(=O)OC(CCCCCC)CCCCCC)N(CCCN1CCCC1)C(=O)CCCCCCCCCC(=O)OC(CCCCCC)CCCCCC (stereo not drawn)', 'F'),
  ('CCCCCCCCNC(=O)C(CCCCCCCC)N(CCCN1CCCC1)C(=O)CCCCCCC(=O)OC(CCCCCCCC)CCCCCCCC (stereo not drawn)', 'T'),
  ('CCCCCC/C=C\CCCCCCCC(C(=O)NCCCCCC)N(CCCN(C)C)C(=O)CCCCCCC(=O)OC(CCCCCCCC)CCCCCCCC (stereo not drawn)', 'T'),
  ('CCCCCCCC(C(=O)NCCCCCCCCCC(=O)OC(CCCCCC)CCCCCC)N(CCN(CCO)C1CCC1)C(=O)CCCCCCCCCC(=O)OC(CCCCCC)CCCCCC (stereo not drawn)', 'F'),
  ('CCCCCCCCC(CCCCCC)COC(=O)CCCCCNC(=O)C(CCCCC)N(CCCCN1CCCC1)C(=O)CCCCCC(=O)OCC(CCCCCC)CCCCCCCC (stereo not drawn)', 'T');

###

The following compounds are listed with their measured Encapsulation efficiency (%) values.
- Test Details: LNP encapsulation efficiency (Quant-it Ribogreen)
- Assay type: physicochemical
- Assay Context: mRNA LNP, cationic lipid/DSPC/cholesterol/PEG-lipid 50:10:38.5:1.5
Attribute Measured: Encapsulation efficiency (%)

INSERT INTO measurements (compound, measured_number) VALUES
  ('CCCCCCCCC(C(=O)NCCCCCCCCCC(=O)OCCCCCC)N(CCCN(CCO)CCO)C(=O)CCCCCCCCCC(=O)OC(CCCCCC)CCCCCC (stereo not drawn)', 79.83),
  ('CCCCCCCCNC(=O)C(CCCCCCCC)N(CCCN(C)CCO)C(=O)CCCCCCC(=O)OC(CCCCCCCC)CCCCCCCC (stereo not drawn)', 93.97),
  ('CCCCCCCCC(CCCCCC)COC(=O)CCCCCCCCCNC(=O)C(CCCCCCCC)N(CCCN(C)C)C(=O)CCCCCCCCCC(=O)OCC(CCCCCC)CCCCCCCC (stereo not drawn)', 94.31),
  ('CCCCCCCCNC(=O)C(CCCCCCCC)N(CCCCN(C)C)C(=O)CCCCCCC(=O)OC(CCCCCCCC)CCCCCCCC (stereo not drawn)', 97.34),
  ('CCCCCCC(CCCCCC)OC(=O)CCCCCCCCCNC(=O)CN(CCN(C)CCN(CC(=O)NCCCCCCCCCC(=O)OC(CCCCCC)CCCCCC)C(=O)CCCCCCCCCC(=O)OC(CCCCCC)CCCCCC)C(=O)CCCCCCCCCC(=O)OC(CCCCCC)CCCCCC', 96.72),
  ('CCCCCCCCC(C(=O)NCCCCCCCCCC(=O)OCCCCCC)N(CCCN(C)C)C(=O)CCCCCCCCCC(=O)OCCCCCC (stereo not drawn)', 41.55);

###

- Test Details: LNP size and PDI by dynamic light scattering
- Type: physicochemical
- Assay Context: mRNA LNP, cationic lipid/DSPC/cholesterol/PEG-lipid 50:10:38.5:1.5
PDI strictly under 0.1 means true; at 0.1 or over means false.

INSERT INTO assay_data (compound, answer_label) VALUES
  ('CCCCCCCCNC(=O)C(CCCCCCCC)N(CCCN(CCO)CCO)C(=O)CCCCCCC(=O)OC(CCCCCCCC)CCCCCCCC (stereo not drawn)', 'false'),
  ('CCCCCCC(CCCCCC)OC(=O)CCCCCCCCCNC(=O)C(CCCCCCCCCC(=O)OC(CCCCCC)CCCCCC)N(CCCN1CCN(CO)CC1)C(=O)CCCN1CCN(CCO)CC1 (stereo not drawn)', 'false'),
  ('CCCCCCCCC(CCCCCC)COC(=O)CCCCCNC(=O)C(CCCCC)N(CCCN1CCCC1)C(=O)CCCCCC(=O)OCC(CCCCCC)CCCCCCCC (stereo not drawn)', 'true'),
  ('CCCCCCCCC(C(=O)NCCCCCCCCCC(=O)OCC12CC3CC(CC(C3)C1)C2)N(CCCN(C)C)C(=O)CCCCCCCCCC(=O)OC(CCCCCC)CCCCCC (stereo not drawn)', 'false'),
  ('CCCCCCCC(C(=O)NCCCCCCCCCC(=O)OC(CCCCCC)CCCCCC)N(CCN(CO)CO)C(=O)CCCCCCCCCC(=O)OC(CCCCCC)CCCCCC (stereo not drawn)', 'false'),
  ('CCCCCCCCC(CCCCCCCC)OC(=O)CCCCCC(=O)N(CCCN(C)C)C(CCCCCCCC)C(=O)NCCCCCC(=O)OCCC12CC3CC(CC(C3)C1)C2 (stereo not drawn)', 'true');

###

- Test Details: LNP zeta potential
- Type: physicochemical
- Assay Context: mRNA LNP
Classify by measured Zeta potential (mV): Condition met if it is equal to or exceeds -3 mV, Condition not met if it is smaller.

INSERT INTO measurements (molecule, answer_label) VALUES
  ('CCCCCCCCC(CCCCCC)COC(=O)CCCCCCCCCNC(=O)C(CCCCCCCC)N(CCCN1CCCC1)C(=O)CCCCCCCCCC(=O)OCC(CCCCCC)CCCCCCCC (stereo not drawn)', 'Condition met'),
  ('CCCCCCCCC(CCCCCC)COC(=O)CCCCCNC(=O)C(CCCCC)N(CCCN1CCCC1)C(=O)CCCCCC(=O)OCC(CCCCCC)CCCCCCCC (stereo not drawn)', 'Condition met'),
  ('CCCCCCCC(C(=O)NCCCCCCCCCC(=O)OC(CCCCCC)CCCCCC)N(CCCN(CCO)C1CCC1)C(=O)CCCCCCCCCC(=O)OC(CCCCCC)CCCCCC (stereo not drawn)', 'Condition met'),
  ('CCCCCCCCC(C(=O)NCCCCCCCCCC(=O)OC(CCCCCC)CCCCCC)N(CCCN(C)C)C(=O)CCCCCCCCCC(=O)OC(CCCCCC)CCCCCC (stereo not drawn)', 'Condition met'),
  ('CCCCCCCC/C=C\CCCCCCCCNC(=O)C(CCCCCCCC)N(CCCCCCCC/C=C\CCCCCCCC)C(=O)CCCN(C)C (stereo not drawn)', 'Condition not met'),
  ('CCCCCCCCC(C(=O)NCCCCCCCCCC(=O)OC(CCCCCC)CCCCCC)N(CCCN1CCCC1)C(=O)CCCCCCCCCC(=O)OC(CCCCCC)CCCCCC (stereo not drawn)', 'Condition not met'),
  ('CCCCCCCCC(C(=O)NCCCCCCCCCC(=O)OCCCCCC)N(CCCN1CCCC1)C(=O)CCCCCCCCCC(=O)OC(CCCCCC)CCCCCC (stereo not drawn)', 'Condition not met'),
  ('CCCCCCCCCCCOC(=O)CCCCCN(CCO)CCCCCCCC(=O)OC(CCCCCCCC)CCCCCCCC [SM-102, reference compound]', 'Condition met'),
  ('CCCCCCCC(C(=O)NCCCCCCCCCC(=O)OC(CCCCCC)CCCCCC)N(CCCn1ccnc1)C(=O)CCCCCCCCCC(=O)OC(CCCCCC)CCCCCC (stereo not drawn)', 'Condition met'),
  ('CCCCCCCC(C(=O)NCCCCCCCCCC(=O)OC(CCCCCC)CCCCCC)N(CCCNc1c(NC)c(=O)c1=O)C(=O)CCCCCCCCCC(=O)OC(CCCCCC)CCCCCC (stereo not drawn)', 'Condition not met'),
  ('CCCCCCC(CCCCCC)OC(=O)CCCCCCCCCNC(=O)C(CCCCCCCCCC(=O)OC(CCCCCC)CCCCCC)N(CCN1CCN(CCO)CC1)C(=O)CCN1CCN(CCO)CC1 (stereo not drawn)', 'Condition not met'),
  ('CCCCCCCCC(C(=O)NCCCCCCCCCC(=O)OCCCCCC)N(CCCN(C)C)C(=O)CCCCCCCCCC(=O)OCCCCCC (stereo not drawn)', 'Condition met');
